Numbers sourced from the RNAGym collection of RNA variant scans (doi:10.1002/anie.201605470).

B1: Osa-1-4 twister ribozyme (parent)
chain: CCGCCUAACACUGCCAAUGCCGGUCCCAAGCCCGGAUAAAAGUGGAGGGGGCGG

- Variants of: B1
- experimentalProtocol: self-cleavage, relative activity (ratio to wild type); higher = more cleavage; co-transcriptional
Decision: self-cleavage >= 0.1 yields criterion met, all other cases yield criterion not met.

     mutation   qualitativelabel
 0   A38G A8G      criterion met
 1  G23U G34A  criterion not met
 2  G53U U18G      criterion met
 3  C20A U24C      criterion met
 4  C21U G44U      criterion met
 5  C32U G47C  criterion not met
 6  A46C U37C  criterion not met
 7   A7U G23U  criterion not met
 8  A38U U12C      criterion met
 9  A16G G48A      criterion met
10   A8G G51A      criterion met
11  G47C U43G  criterion not met
12  A40G U24A  criterion not met
13  G30A G48C  criterion not met
14  A46C C15G  criterion not met
15  A29G C52A      criterion met
16  A46G G49A  criterion not met
17  A40G G42U  criterion not met
18  A29G G34U  criterion not met
19  A38C A40U      criterion met
20  A28C C21G  criterion not met
21  A39C C14U      criterion met
22  C31U G23C  criterion not met
23  C31U G22C  criterion not met
24  C21U C33G  criterion not met
25  A10U G42C  criterion not met
26  A17G G22U      criterion met
27  C27U U24G  criterion not met
28  C52A U18C      criterion met
29  G19A G44U      criterion met
30  A28G G45C  criterion not met
31   A8G G13U  criterion not met
32  C20U U37C      criterion met
33  A40U U18G      criterion met
34  A46G U37C  criterion not met
35  C11U C14G  criterion not met
36   C9A G51C  criterion not met
37   A41U A7U      criterion met
38  A36G U43C      criterion met
39       C32U      criterion met
40  G34A G51C  criterion not met
41   A7U G34A  criterion not met
42  G13A G47U  criterion not met
43   A40U C9U      criterion met
44  A28U A29U  criterion not met
